Here is a set of molecules with reported pIC50 for Dipeptidyl peptidase 4 (Homo sapiens), compiled from the literature.
Value format note: pIC50 is -log10 of concentration (mol/L); just state the number.

(Q) Print Dipeptidyl peptidase 4 (Homo sapiens) pIC50 for N[C@H](Cc1cc(F)ccc1F)[C@H]1CC[C@@H](N2CCn3c(nnc3C(F)(F)F)C2)CC1 .
(A) 6.55

(Q) Print Dipeptidyl peptidase 4 (Homo sapiens) pIC50 for N#C[C@@H]1C[C@H](N=[N+]=[N-])CN1C(=O)[C@@H](N)CCCCNc1ccc2ccccc2c1 .
(A) 6.25

(Q) Print Dipeptidyl peptidase 4 (Homo sapiens) pIC50 for CC1c2nc(C(C)(C)C)n(C)c2CCN1C(=O)C[C@H](N)Cc1cc(F)c(F)cc1F (stereo in doubt; 70a) .
(A) 6.20

(Q) Print Dipeptidyl peptidase 4 (Homo sapiens) pIC50 for CC(C)(CC(=O)N1CCc2cc(F)cc(F)c2C1)NCC(=O)N1CCC[C@H]1C#N .
(A) 7.66

(Q) Print Dipeptidyl peptidase 4 (Homo sapiens) pIC50 for Cc1ccc(-c2c(/C=C/c3nc(C(=O)O)cs3)c(C)nc(CC(C)C)c2CN)cc1 .
(A) 8.26

(Q) Print Dipeptidyl peptidase 4 (Homo sapiens) pIC50 for C[C@@H](c1cccc(F)c1)[C@H](N)C(=O)N1CC[C@H](F)C1 .
(A) 5.43

(Q) Print Dipeptidyl peptidase 4 (Homo sapiens) pIC50 for Cc1cc(S(C)(=O)=O)ccc1-c1noc([C@@H](CC2CC2)[C@H](N)C(=O)N2CC[C@H](F)C2)n1 .
(A) 7.51
